Assay: Long-term stability in spiked pooled human plasma
Settings: validation standard 2xLLOV
Measurement type: Long-term stability, 1 month, -20°C Accuracy [%] (%)
Please respond with the number in % and leave the unit unwritten.

# annotated cases, reported Long-term stability, 1 month, -20°C Accuracy [%] shown
{"columns": ["Compound", "Readout unit", "Test result"],
 "data": [
  ["CNC(=O)c1cc(Oc2ccc(NC(=O)Nc3ccc(Cl)c(C(F)(F)F)c3)cc2)ccn1", "%", 103.7],
  ["Cn1cnc2c(F)c(Nc3ccc(Br)cc3F)c(C(=O)NOCCO)cc21", "%", 94.8],
  ["Cc1ccc(C(=O)Nc2ccc(CN3CCN(C)CC3)c(C(F)(F)F)c2)cc1C#Cc1cnc2cccnn12", "%", 99.2],
  ["CCN(CC)CCNC(=O)c1c(C)[nH]c(/C=C2\\C(=O)Nc3ccc(F)cc32)c1C", "%", 121.2],
  ["C=CC(=O)Nc1cc(Nc2nccc(-c3cn(C)c4ccccc34)n2)c(OC)cc1N(C)CCN(C)C", "%", 95.2]
]}

Consider the compound CNC(=O)c1ccc(N2C(=S)N(c3cnc(C#N)c(C(F)(F)F)c3)C(=O)C23CCC3)cc1F [Apalutamide] and give its measured Long-term stability, 1 month, -20°C Accuracy [%].
94.7

# iterate: O=C(c1cc(Cc2n[nH]c(=O)c3ccccc23)ccc1F)N1CCN(C(=O)C2CC2)CC1
100.3

// same read-out, input: CCN1CCN(Cc2ccc(Nc3ncc(F)c(-c4cc(F)c5nc(C)n(C(C)C)c5c4)n3)nc2)CC1
95.0

====

Experiment: Long-term stability in spiked pooled human plasma
Conditions: validation standard LLOV
This listing pairs compounds with measured Long-term stability, 1 month, -80°C Accuracy [%].
A number alone suffices; assume %.

Could you tell me which Long-term stability, 1 month, -80°C Accuracy [%] is on file for CS(=O)(=O)c1ccc(C(=O)Nc2ccc(Cl)c(-c3ccccn3)c2)c(Cl)c1 ?
88.6

Repeat with COc1cc2nccc(Oc3ccc(NC(=O)C4(C(=O)Nc5ccc(F)cc5)CC4)cc3)c2cc1OC [Cabozantinib]
89.4

Repeat for the following compound: CNC(=O)c1ccc(N2C(=S)N(c3ccc(C#N)c(C(F)(F)F)c3)C(=O)C2(C)C)cc1F [Enzalutamide]
82.3

Another compound to check: CNC(=O)c1ccccc1Sc1ccc2c(/C=C/c3ccccn3)n[nH]c2c1
83.07

Try this compound too: COc1cc(N2CCC(N3CCN(C)CC3)CC2)ccc1Nc1ncc(Cl)c(Nc2ccccc2P(C)(C)=O)n1
88.3

Please do the same for COC(=O)N[C@@H](C)CNc1nccc(-c2cn(C(C)C)nc2-c2cc(Cl)cc(NS(C)(=O)=O)c2F)n1 as well.
88.1

====

Assay: Short-term stability in spiked pooled human plasma (bench-top, 4 °C, 56 °C)
Conditions: validation standard LLOV
Measurement type: Short-time stability (24h, 4°C, without daylight) Accuracy [%] (%)
# unit: % | format: bare number

Sample records with Short-time stability (24h, 4°C, without daylight) Accuracy [%]:
{"columns": ["Compound", "Readout unit", "Test result"],
 "data": [
  ["C#Cc1cccc(Nc2ncnc3cc(OCCOC)c(OCCOC)cc23)c1 [Erlotinib]", "%", 110.4],
  ["O=C(Nc1cnn2ccc(N3CCC[C@@H]3c3cc(F)ccc3F)nc12)N1CC[C@H](O)C1 [Larotrectinib]", "%", 107.8],
  ["O=C1CN2Cc3c(ccc(Cl)c3Cl)N=C2N1 [Anagrelide]", "%", 90.4],
  ["O=C(c1cc(Cc2n[nH]c(=O)c3ccccc23)ccc1F)N1CCN(C(=O)C2CC2)CC1 [Olaparib]", "%", 110.7],
  ["CNC(=O)c1cc(Oc2ccc(NC(=O)Nc3ccc(Cl)c(C(F)(F)F)c3)cc2)ccn1 [Sorafenib]", "%", 96.0],
  ["CS(=O)(=O)c1ccc(C(=O)Nc2ccc(Cl)c(-c3ccccn3)c2)c(Cl)c1 [Vismodegib]", "%", 87.2],
  ["COc1cc2nccc(Oc3ccc(NC(=O)Nc4cc(C)on4)c(Cl)c3)c2cc1OC [Tivozanib]", "%", 102.5]
]}

Turning to the following compound.
Entry CNC(=O)c1ccc(N2C(=S)N(c3ccc(C#N)c(C(F)(F)F)c3)C(=O)C2(C)C)cc1F [Enzalutamide] : reported Short-time stability (24h, 4°C, without daylight) Accuracy [%] = ?
102.0

====

Assay: Long-term stability in spiked pooled human plasma
Details: validation standard 2xLLOV
I'd appreciate it if you marked entries Satisfied when Long-term stability, 6 weeks, 4°C, without daylight Accuracy [%] is lower than 90% and Not satisfied when it is not.

Reference set, count: 10
{"columns": ["Compound", "Assigned label"],
 "data": [
  ["COc1cc2nccc(Oc3ccc(NC(=O)NC4CC4)c(Cl)c3)c2cc1C(N)=O", "Not satisfied"],
  ["CCc1cc2c(cc1N1CCC(N3CCOCC3)CC1)C(C)(C)c1[nH]c3cc(C#N)ccc3c1C2=O", "Satisfied"],
  ["COc1cc(N2CCC(N3CCN(C)CC3)CC2)ccc1Nc1ncc(Cl)c(Nc2ccccc2P(C)(C)=O)n1", "Not satisfied"],
  ["O=C(c1ccc(F)c(F)c1Nc1ccc(I)cc1F)N1CC(O)([C@@H]2CCCCN2)C1", "Not satisfied"],
  ["CC1(C)CCC(CN2CCN(c3ccc(C(=O)NS(=O)(=O)c4ccc(NCC5CCOCC5)c([N+](=O)[O-])c4)c(Oc4cnc5[nH]ccc5c4)c3)CC2)=C(c2ccc(Cl)cc2)C1", "Not satisfied"],
  ["Cc1[nH]c2ccccc2c1CCNCc1ccc(/C=C/C(=O)NO)cc1", "Satisfied"],
  ["COC(=O)N[C@@H](C)CNc1nccc(-c2cn(C(C)C)nc2-c2cc(Cl)cc(NS(C)(=O)=O)c2F)n1", "Not satisfied"],
  ["CNC(=O)c1ccc(N2C(=S)N(c3cnc(C#N)c(C(F)(F)F)c3)C(=O)C23CCC3)cc1F [Apalutamide]", "Satisfied"],
  ["CNC(=O)c1cc(Oc2ccc(NC(=O)Nc3ccc(Cl)c(C(F)(F)F)c3)cc2)ccn1", "Satisfied"],
  ["CNC(=O)c1cc(Oc2ccc(NC(=O)Nc3ccc(Cl)c(C(F)(F)F)c3)c(F)c2)ccn1", "Satisfied"]
]}

For the next question, use this compound.
Input CC(=O)Nc1cccc(-n2c(=O)n(C3CC3)c(=O)c3c(Nc4ccc(I)cc4F)n(C)c(=O)c(C)c32)c1 ; condition: Long-term stability, 6 weeks, 4°C, without daylight Accuracy [%] strictly below 90%. Does it hold?
Not satisfied

====

Test: Long-term stability in spiked pooled human plasma
Conditions: validation standard 2xLLOV
Parameter Long-term stability, 1 month, -20°C Accuracy [%]: see the listing below.
Kindly format the answer as number then unit.

{"columns": ["Compound", "Test result"],
 "data": [
  ["COc1cc2nccc(Oc3ccc(NC(=O)C4(C(=O)Nc5ccc(F)cc5)CC4)cc3)c2cc1OC [Cabozantinib]", "98.4%"]
]}

May I ask what Long-term stability, 1 month, -20°C Accuracy [%] has been recorded for CS(=O)(=O)c1ccc(C(=O)Nc2ccc(Cl)c(-c3ccccn3)c2)c(Cl)c1 ?
105.4%

Entry COc1cc2nccc(Oc3ccc(NC(=O)NC4CC4)c(Cl)c3)c2cc1C(N)=O please
99.7%

Further, for Cc1[nH]c2ccccc2c1CCNCc1ccc(/C=C/C(=O)NO)cc1 ?
52.2%

Queued: COc1cc2ncnc(Nc3ccc(F)c(Cl)c3)c2cc1OCCCN1CCOCC1
99.2%

====

Items are presented alongside their recorded Long-term stability, 6 weeks, 4°C, without daylight Accuracy [%].
Test: Long-term stability in spiked pooled human plasma
Conditions: validation standard 2xLLOV
Please give a number only; it is taken to be in %.

Example cases with answers are listed next.
{"columns": ["Compound", "Readout unit", "Test result"],
 "data": [
  ["Cc1c(C(=O)Nc2ccc(N3C[C@@H](C)O[C@@H](C)C3)nc2)cccc1-c1ccc(OC(F)(F)F)cc1", "%", 91.2],
  ["CCN1CCN(Cc2ccc(Nc3ncc(F)c(-c4cc(F)c5nc(C)n(C(C)C)c5c4)n3)nc2)CC1", "%", 92.0],
  ["O=C1CN2Cc3c(ccc(Cl)c3Cl)N=C2N1 [Anagrelide]", "%", 74.6],
  ["C[C@]12CC[C@H](O)CC1=CC[C@@H]1[C@@H]2CC[C@]2(C)C(c3cccnc3)=CC[C@@H]12", "%", 101.6],
  ["CCC1=C[C@@H]2CN(C1)Cc1c([nH]c3ccccc13)[C@@](C(=O)OC)(c1cc3c(cc1OC)N(C)[C@H]1[C@@](O)(C(=O)OC)[C@H](OC(C)=O)[C@]4(CC)C=CCN5CC[C@]31[C@@H]54)C2", "%", 75.3]
]}

I'd like to know its Long-term stability, 6 weeks, 4°C, without daylight Accuracy [%]. The compound in question is C[C@H]1Oc2cc(cnc2N)-c2c(nn(C)c2C#N)CN(C)C(=O)c2ccc(F)cc21
96.7

Now consider CNCc1ccc(-c2[nH]c3cc(F)cc4c3c2CCNC4=O)cc1 .
93.1

Subsequent entry: Cc1cn(-c2cc(NC(=O)c3ccc(C)c(Nc4nccc(-c5cccnc5)n4)c3)cc(C(F)(F)F)c2)cn1
103.4

Thanks! And N#CC[C@H](C1CCCC1)n1cc(-c2ncnc3[nH]ccc23)cn1 ?
93.8

Try this compound next: CCN(CC)CCNC(=O)c1c(C)[nH]c(/C=C2\C(=O)Nc3ccc(F)cc32)c1C
85.9

Now try O=c1[nH]c(=O)n([C@H]2C[C@H](O)[C@@H](CO)O2)cc1C(F)(F)F .
68.8

Could you do the same for CS(=O)(=O)CCNCc1ccc(-c2ccc3ncnc(Nc4ccc(OCc5cccc(F)c5)c(Cl)c4)c3c2)o1 , please?
34.8

Also need CS(=O)(=O)c1ccc(C(=O)Nc2ccc(Cl)c(-c3ccccn3)c2)c(Cl)c1 , thanks.
107.5

Moving on to Cc1ccc(NC(=O)c2ccc(CN3CCN(C)CC3)cc2)cc1Nc1nccc(-c2cccnc2)n1
103.4

Now consider COc1cc2nccc(Oc3ccc(NC(=O)Nc4cc(C)on4)c(Cl)c3)c2cc1OC .
93.9

Record: O=C(c1cc(Cc2n[nH]c(=O)c3ccccc23)ccc1F)N1CCN(C(=O)C2CC2)CC1
96.6
